Molecular target: MDM2 (Homo sapiens)
Construct: made in house
Sequence (Q00987 25-109): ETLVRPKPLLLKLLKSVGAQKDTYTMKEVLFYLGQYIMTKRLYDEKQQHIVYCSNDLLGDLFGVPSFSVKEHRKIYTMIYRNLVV
Assay: Naive Library Presenter Screening (phage, NGS), MDM2
Format: binding
Settings: MDM2 clusters (C82, C85); target concentration 30 nM
Numbered stars: 1 amine (or outer) side, 2 acyl side, 3 side chain; on linkers, the order of the positions; unused ones are H or OH. Bridge positions count the residues as written; N and C are the ends. Ends that are not written are not given here. Phenylene(1,4-NHCOCH2)2 = O=C(C[*:1])Nc1ccc(NC(=O)C[*:2])cc1
measurement_kind: interaction data at Target Concentration 30

// below: answered sequences
DPAMSNCFMAAWECLIQ (linker 7-14 via Phenylene(1,4-NHCOCH2)2 (inferred); not fully specified (C-terminus))	104
DPAAVQCNTAAFQCYWF (linker 7-14 via Phenylene(1,4-NHCOCH2)2 (inferred))	0
DPARLRCQDAAFACMWY (DPARLRCQDAAFACMWY-NH2; linker 7-14 via Phenylene(1,4-NHCOCH2)2 (inferred))	0
DPALFSCDSAAFSCYWY (linker 7-14 via Phenylene(1,4-NHCOCH2)2 (inferred); not fully specified (C-terminus))	0

a. DPARQDCFSAAWMCMAI (DPARQDCFSAAWMCMAI-NH2; linker 7-14 via Phenylene(1,4-NHCOCH2)2 (inferred))
b. DPALMQCTEAAFWCYWE (linker 7-14 via Phenylene(1,4-NHCOCH2)2 (inferred); not fully specified (C-terminus))
Endpoint returns whichever of a and b has the numerically higher interaction data at Target Concentration 30. Write down the label of the entry you select. a
(a: 1, b: 0)

1. DPAERNCFTAAWQCMVW (linker 7-14 via Phenylene(1,4-NHCOCH2)2 (inferred))
2. DPAQQDCFLAAWDCVWQ (DPAQQDCFLAAWDCVWQ-NH2; linker 7-14 via Phenylene(1,4-NHCOCH2)2 (inferred))
Please compare: 1 and 2 . Report which one has the smaller interaction data at Target Concentration 30 value. Write down the label of the entry you select. 2

a. DPARRECMDAAFWCQWV (DPARRECMDAAFWCQWV-NH2; linker 7-14 via Phenylene(1,4-NHCOCH2)2 (inferred))
b. DPAQHHCQQAAFWCQWW (DPAQHHCQQAAFWCQWW-NH2; linker 7-14 via Phenylene(1,4-NHCOCH2)2 (inferred))
c. DPAETDCSQAAFWCYWQ (linker 7-14 via Phenylene(1,4-NHCOCH2)2 (inferred))
Order the records by interaction data at Target Concentration 30, with each subsequent value no larger than the one before. List the labels in the requested order. a, c, b

* * *

Biological target: RNF31 PUB domain (Homo sapiens, UniProt Q96EP0)
Construct: MBP-TEV (N, cleaved yes); made in house; host or cells: E. coli BL21 (DE3) pLysS
Sequence (Q96EP0 1-179): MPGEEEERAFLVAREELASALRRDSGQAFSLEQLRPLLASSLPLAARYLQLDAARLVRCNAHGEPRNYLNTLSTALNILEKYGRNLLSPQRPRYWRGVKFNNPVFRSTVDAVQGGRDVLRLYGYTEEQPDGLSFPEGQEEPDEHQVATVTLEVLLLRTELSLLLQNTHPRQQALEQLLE
Experiment: Phage Library Screening with NGS, RNF31 PUB domain
Assay type: binding
Conditions: clusters C41-C45; BLANK screen, column 3 of 5
measurement_kind: Phage library screen NGS readout, BLANK

a. DPAQEACWDAAIMCTYR
b. DPAWWNCLYAANTCVED
Endpoint returns whichever of a and b has the numerically higher Phage library screen NGS readout, BLANK. Write down the label of the entry you select. b
(b: 1, a: 0)

a. DPAIQECYLAAQVCTTY
b. DPAYWDCLYAAWSCDIL
Endpoint returns whichever of a and b has the numerically higher Phage library screen NGS readout, BLANK. Write down the label of the entry you select. b

1. DPAYEDCAWAALYCDMT
2. DPAYDWCLYAAEYCHTD
3. DPALSHCTVAAMVCSTY
4. DPARDWCLYAAYDCYTA (Ac-DPARDWCLYAAYDCYTA-NH2; not fully specified (bridges); cysteine pairing not given here)
Order the records by Phage library screen NGS readout, BLANK, with each subsequent value no larger than the one before. List the labels in the requested order. 4, 3, 2, 1

* * *

Target: MDM2 (Homo sapiens)
Construct: made in house
Assay: Naive Library Presenter Screening (phage, NGS), MDM2
Assay type: binding
Conditions: MDM2 clusters (C82, C85); target concentration 30 nM
Numbered stars: 1 amine (or outer) side, 2 acyl side, 3 side chain; on linkers, the order of the positions; unused ones are H or OH. Bridge positions count the residues as written; N and C are the ends. Ends that are not written are not given here. Phenylene(1,4-NHCOCH2)2 = O=C(C[*:1])Nc1ccc(NC(=O)C[*:2])cc1
measurement_kind: interaction data at Target Concentration 30

DPAAQECFRAAWRCMQD (linker 7-14 via Phenylene(1,4-NHCOCH2)2 (inferred))	0

P. DPAQSDCFQAAWECVAN (DPAQSDCFQAAWECVAN-NH2; linker 7-14 via Phenylene(1,4-NHCOCH2)2 (inferred))
Q. DPAYTQCSDAAFMCWWW (linker 7-14 via Phenylene(1,4-NHCOCH2)2 (inferred))
R. DPAYEDCFFAAWNCMMV (linker 7-14 via Phenylene(1,4-NHCOCH2)2 (inferred))
# rank by interaction data at Target Concentration 30, ascending (min first) List the labels in the requested order. P, R, Q
(P: 0, R: 5, Q: 19)

* * *

Target: CHIP (Homo sapiens)
Construct: N-term truncated CHIP (also known as STUB1, Uniprot ID: Q9UNE7, residues 23-303); made in house; host or cells: E. coli BL21 CodonPlus
Sequence (Q9UNE7 23-303): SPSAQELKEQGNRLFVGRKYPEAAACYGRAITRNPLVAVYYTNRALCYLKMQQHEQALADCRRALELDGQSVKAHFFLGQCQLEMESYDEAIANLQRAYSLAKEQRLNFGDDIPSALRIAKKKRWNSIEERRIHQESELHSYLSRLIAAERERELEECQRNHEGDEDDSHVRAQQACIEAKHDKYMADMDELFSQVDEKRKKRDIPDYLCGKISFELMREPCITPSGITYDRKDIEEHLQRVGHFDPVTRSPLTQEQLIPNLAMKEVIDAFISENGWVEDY
Assay: Naive Library Presenter Screening (phage, NGS), CHIP
Assay type: binding
Settings: CHIP clusters (C83, C84); target concentration 100 nM
Numbered stars: 1 amine (or outer) side, 2 acyl side, 3 side chain; on linkers, the order of the positions; unused ones are H or OH. Bridge positions count the residues as written; N and C are the ends. Ends that are not written are not given here. Phenylene(1,4-NHCOCH2)2 = O=C(C[*:1])Nc1ccc(NC(=O)C[*:2])cc1
measurement_kind: interaction data at Target Concentration 100

DPAVHNCSQAASICDVD (linker 7-14 via Phenylene(1,4-NHCOCH2)2 (inferred); not fully specified (C-terminus))	0

1. DPALWNCQYAAVMCTQL (linker 7-14 via Phenylene(1,4-NHCOCH2)2 (inferred); not fully specified (C-terminus))
2. DPAIIWCSQAASICTVD (linker 7-14 via Phenylene(1,4-NHCOCH2)2 (inferred))
3. DPAFEQCQFAAAMCLHH (linker 7-14 via Phenylene(1,4-NHCOCH2)2 (inferred))
# rank by interaction data at Target Concentration 100, ascending (min first) List the labels in the requested order. 1, 3, 2
(1: 0, 3: 1, 2: 19)

* * *

Biological target: RNF31 UBA domain (Homo sapiens, UniProt Q96EP0)
Construct: RNF31 UBA domain protein (residues 480-639) with N-terminal Thioredoxin-TEV-6×his-yBBr-3C tags; Thioredoxin (N, cleaved yes); made in house; host or cells: E. coli BL21 (DE3) pLysS
Sequence (Q96EP0 480-639): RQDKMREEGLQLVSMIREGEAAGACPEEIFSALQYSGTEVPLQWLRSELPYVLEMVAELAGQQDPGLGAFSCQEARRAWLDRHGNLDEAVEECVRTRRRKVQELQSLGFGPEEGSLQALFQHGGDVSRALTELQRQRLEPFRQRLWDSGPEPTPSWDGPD
Test: Phage Library Screening with NGS, RNF31 UBA domain
Format: binding
Settings: Target Concentration 300; no competitor
measurement_kind: phage screen NGS read-out at Target Concentration 300

// below: answered sequences
DPADLICQLAAANCIYL	30
DPATQHCLAAAMWCHLI	3
DPAQWVCHMAAMNCLYQ	4

A. DPAFSECVYAAIYCVHS
B. DPAREHCAAAATWCOLL (DPAREHCAAAATWCQLL)
C. DPAITHCTAAAMWCHLL
D. DPAHEHCTSAAAWCMLL
E. DPADWTCVLAAHNCLYT
# rank by phage screen NGS read-out at Target Concentration 300, ascending (min first) List the labels in the requested order. E, D, A, B, C
(E: 1, D: 2, A: 7, B: 28, C: 80)

* * *

Target: RNF31 PUB domain (Homo sapiens)
Construct: MBP-TEV (N, cleaved yes); made in house; host or cells: E. coli BL21 (DE3) pLysS
Sequence (Q96EP0 1-179): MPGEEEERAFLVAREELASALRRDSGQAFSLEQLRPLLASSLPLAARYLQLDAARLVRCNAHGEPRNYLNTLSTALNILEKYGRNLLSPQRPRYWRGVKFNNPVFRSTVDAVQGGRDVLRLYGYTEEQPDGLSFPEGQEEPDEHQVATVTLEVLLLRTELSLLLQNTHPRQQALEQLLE
Assay: Phage Library Screening with NGS, RNF31 PUB domain
Assay type: binding
Details: RNF31 PUB domain clusters C41-C45; target concentration 300
measurement_kind: Phage library screen NGS readout, Target Concentration 300

A. DPAYDYCLYAAQDCVWW
B. DPAHDWCLYAAYDCRVY
Endpoint returns whichever of A and B has the numerically higher Phage library screen NGS readout, Target Concentration 300. Write down the label of the entry you select. B

A. DPAIAQCMLAAQVCSTY
B. DPAIRECMLAALVCSTY
C. DPAWWNCLYAADECWSW
D. DPAMQDCQLAALVCTTY
E. DPAQDWCMYAAYECDAH
Order the records by Phage library screen NGS readout, Target Concentration 300, with each subsequent value no larger than the one before. List the labels in the requested order. B, A, C, E, D

Reference for the values: patent US20240376151A1
